Measured values drawn from the METLIN SMRT retention time set (Domingo-Almenara et al. 2019) for this set.

# testProtocol: gradient 5% acetonitrile 3 min, to 50% in 2 min, to 85% in 15 min, held 3 min, 100 µL/min
# conditionDescription: column: Zorbax Extend-C18 2.1 x 50 mm; eluents: water / acetonitrile, 0.1% formic acid
assayMetric: RP-LC retention time (s)

1) Cc1c(Cl)cccc1S(=O)(=O)NCC(O)c1ccc(C(F)(F)F)cc1 (centres undefined)    938
2) NS(=O)(=O)c1cccnc1Nc1ccc(F)c(Cl)c1    879
3) O=C(Nc1ccc(F)cc1F)N1CCC(n2cnc3cc(Cl)ccc3c2=O)CC1    806
4) COCCN1C(=O)c2cc(-c3ccc(OC)cc3)nn2CC1(C)C(=O)NCc1ccccc1OC (centres undefined)    853

I = N#Cc1c(N)nc(SCc2csc(-c3ccc(Cl)cc3)n2)c(C#N)c1-c1ccc(OCCO)cc1
II = CCOC(=O)CCNC(=O)N1CCN(Cc2nc3cccnc3n2-c2ccccc2)CC1
Endpoint returns the identifier whose RP-LC retention time is numerically larger, either I or II . Write down the label attached to your selection.
I

----------
# testProtocol: gradient 5% acetonitrile 3 min, to 50% in 2 min, to 85% in 15 min, held 3 min, 100 µL/min
# conditionDescription: column: Zorbax Extend-C18 2.1 x 50 mm; eluents: water / acetonitrile, 0.1% formic acid
assayMetric: RP-LC retention time (s)

1) COc1ccc(C)cc1NC(=O)C1CC(=O)N(c2ccc3c(c2)CCN3C(=O)C2CC2)C1 (stereo not drawn)    836
2) CCCn1nc(CNC(=O)COc2ccccc2)c2ccccc21    900
3) Cc1ccc(CN2CCNCC2)cc1NC(=O)CNc1ccc(F)c(F)c1    639

I = Cc1ccc(-n2cc3c(N4CCCC(C(=O)NCc5ccc(N(C)C)cc5)C4)ncnc3n2)cc1 (stereo not drawn)
II = Cc1sc2ccn(CC(C)C)c(=O)c2c1C(=O)O
Problem: Given the entries I and II , determine which has the lower reported RP-LC retention time. Give the label of your selection.
I

a = CCN1CCN(c2ccc(NC(=O)c3ccc(F)c(Cl)c3)cn2)C1=O
b = CCn1nccc1-c1cccc(-c2noc(-c3ccc(F)cc3F)n2)c1
Just curious, which one has the larger RP-LC retention time reading, a or b ? Answer with the label corresponding to your selection.
b
(b: 1270 s, a: 811 s)

----------
# testProtocol: gradient 5% acetonitrile 3 min, to 50% in 2 min, to 85% in 15 min, held 3 min, 100 µL/min
# conditionDescription: column: Zorbax Extend-C18 2.1 x 50 mm; eluents: water / acetonitrile, 0.1% formic acid
assayMetric: RP-LC retention time (s)

1) Cc1cc(-c2nnc(-c3ccccc3)o2)c(C)n1CC(=O)NCc1ccc(Cl)cc1    982
2) CC(C)n1nc(CNC(=O)c2ccsc2)c2ccccc21    800
3) COc1ccc(C2(C(=O)Nc3cc(-c4ccco4)no3)CC2)cc1    1000

a = COc1ccc(N2CCN(c3ncc(S(=O)(=O)c4ccc(C(C)C)cc4)c(N)n3)CC2)cc1
b = CCCCN1CCN(Cc2nc(-c3ccc(N4CCC(C)CC4)nc3)no2)CC1
Form: Entry with minimum RP-LC retention time (choose one): a / b To answer, give the label that identifies your chosen option.
b

----------
# testProtocol: gradient 5% acetonitrile 3 min, to 50% in 2 min, to 85% in 15 min, held 3 min, 100 µL/min
# conditionDescription: column: Zorbax Extend-C18 2.1 x 50 mm; eluents: water / acetonitrile, 0.1% formic acid
assayMetric: RP-LC retention time (s)

1. Cc1nc(-c2ccccc2OC2CN(S(=O)(=O)Cc3ccccc3)C2)no1    916
2. COc1cccc(CN2C[C@@H]3C(=O)N(Cc4ccc5c(c4)OCO5)C(=O)[C@@H]3C2)c1OC    704
3. CC(=O)Nc1ccc(SCCCC(=O)Nc2nc3ccccc3s2)nn1    691
4. Cc1ccccc1CNC(=O)CN1C(=O)CCCc2cc(S(=O)(=O)N3CCC(C)CC3)ccc21    975
5. CCCS(=O)(=O)N1CCCCC1c1nc(-c2cccnc2)n[nH]1 (centres undefined)    601
6. CCOC(=O)c1c(C)[nH]c(C(=O)N2CCCC(C(=O)NCCCN3CCCC3)C2)c1C (centres undefined)    589
7. CC(=O)N1CCCCCCNC(=O)[C@@H]2CCC[C@@H]21    624

a = Cc1cc(C(=O)Nc2ccc(S(C)(=O)=O)cc2)on1
b = COC(=O)c1ccc(NC(=O)Cn2cnc3c(sc4nc(-c5ccccc5)ccc43)c2=O)cc1
Of a and b , which one carries the higher reported RP-LC retention time? Use the label to indicate which entry you chose.
b
(b: 985 s, a: 625 s)

----------
# testProtocol: gradient 5% acetonitrile 3 min, to 50% in 2 min, to 85% in 15 min, held 3 min, 100 µL/min
# conditionDescription: column: Zorbax Extend-C18 2.1 x 50 mm; eluents: water / acetonitrile, 0.1% formic acid
assayMetric: RP-LC retention time (s)

Below, 3 compounds whose answers are already recorded.
1. c1ccc(CNc2nc(-c3ccccc3)no2)cc1    975
2. CCOc1ccc(N2CC(CNC(=O)Nc3cc(OC)c(OC)c(OC)c3)CC2=O)cc1 (stereo unspecified)    668
3. CCCN(C)c1nccn2c(=O)n(CC(=O)Nc3ccc(C)cc3F)nc12    719

a = O=C(O)/C=C/C(=O)N1Cc2cc3ccccc3nc2C1
b = Cc1cc(Cl)ccc1OCC(=O)Nc1nc(-c2ccc(F)cc2)cs1
Min RP-LC retention time? a | b Reply with the label of the item you choose.
a
(a: 681 s, b: 1190 s)

A = COc1cccc(/C=C/c2nc(C#N)c(NCCCN(C)C)o2)c1
B = Cc1ccc(-c2ccc(=O)n(Cc3nc(-c4cccs4)no3)n2)cc1
Of A and B , whose reported RP-LC retention time is numerically smaller? Lab log: write the label of the selected item as the result.
A
(A: 651 s, B: 990 s)

----------
# testProtocol: gradient 5% acetonitrile 3 min, to 50% in 2 min, to 85% in 15 min, held 3 min, 100 µL/min
# conditionDescription: column: Zorbax Extend-C18 2.1 x 50 mm; eluents: water / acetonitrile, 0.1% formic acid
assayMetric: RP-LC retention time (s)

Recorded results for 3 molecules are shown here.
1) Cc1ccc(CNC(=O)C2CCN(S(=O)(=O)c3ccc4c(c3)CCCC(=O)N4)CC2)o1    710
2) CN1C(=O)C(C)(C(=O)Nc2ccc(Cl)cc2F)Oc2cccnc21 (centres undefined)    894
3) CNC(=O)c1cnn(-c2nc(N)c3ncn([C@@H]4O[C@H](CO)C(O)C4O)c3n2)c1 (some centres undefined)    586

1 = Cc1ccc(-c2noc(-c3nc(-c4cccnc4)no3)n2)cc1
2 = O=C(NCC1CCOCC1)Nc1ccccc1C(F)(F)F
Just curious, which one has the larger RP-LC retention time reading, 1 or 2 ? Provide the label of your selected option as the answer.
1

----------
# testProtocol: gradient 5% acetonitrile 3 min, to 50% in 2 min, to 85% in 15 min, held 3 min, 100 µL/min
# conditionDescription: column: Zorbax Extend-C18 2.1 x 50 mm; eluents: water / acetonitrile, 0.1% formic acid
assayMetric: RP-LC retention time (s)

Recorded results for 3 compounds are shown here.
1. O=c1n(Cc2ccc(Cl)cc2)nc2ccc(S(=O)(=O)N3CCCC3)cn12    906
2. COc1cccc(Oc2nccn3c(=O)n(CC(=O)Nc4cccc(C(F)(F)F)c4)nc23)c1    919
3. Cc1cccc(-c2ncccc2CNS(=O)(=O)Cc2ccccc2)c1    684

a = CCn1nnc(NCc2ccc(-c3cc(Cl)ccc3Cl)o2)n1
b = Cc1ccc(-c2n[nH]c3c2CN(S(=O)(=O)c2cn(C)cn2)CC3)cc1
Hey, between a and b which has a smaller measured RP-LC retention time? Lab note: record the label of whichever item you select.
b
(b: 687 s, a: 1110 s)

----------
# testProtocol: gradient 5% acetonitrile 3 min, to 50% in 2 min, to 85% in 15 min, held 3 min, 100 µL/min
# conditionDescription: column: Zorbax Extend-C18 2.1 x 50 mm; eluents: water / acetonitrile, 0.1% formic acid
assayMetric: RP-LC retention time (s)

A = O=C(Cc1cc(-c2cc3ccccc3o2)on1)NCCc1c[nH]c2ccccc12
B = Cc1nc(COc2ccccc2)sc1C(=O)NCCN(C)C
Short answer wanted: higher RP-LC retention time, A or B ? Mark your answer with the label of the selected entry.
A
(A: 883 s, B: 611 s)

----------
# testProtocol: gradient 5% acetonitrile 3 min, to 50% in 2 min, to 85% in 15 min, held 3 min, 100 µL/min
# conditionDescription: column: Zorbax Extend-C18 2.1 x 50 mm; eluents: water / acetonitrile, 0.1% formic acid
assayMetric: RP-LC retention time (s)

1) COc1ccc(N2CCN(C(=O)CCC(=O)N3CCCn4nc(-c5cccn5C)cc43)CC2)cc1    711
2) COc1ccccc1NC1=NS(=O)(=O)c2ccccc21    769
3) Cc1cc(F)ccc1NC(=O)C1(C)Oc2cccnc2NC1=O (stereo not given)    687
4) CCn1cnc(S(=O)(=O)N2CCCC(C(=O)Nc3ccc(C)c(C)c3)C2)c1 (stereo not given)    800
5) CCC(C)(C)NS(=O)(=O)c1cc(-c2nc(C)c(C(=O)N3CCCC3)s2)cs1    863
